# TESTED_ON: BRAF V600R (Homo sapiens, UniProt P15056, V600R)
# Sequence (P15056 whole entry V600R): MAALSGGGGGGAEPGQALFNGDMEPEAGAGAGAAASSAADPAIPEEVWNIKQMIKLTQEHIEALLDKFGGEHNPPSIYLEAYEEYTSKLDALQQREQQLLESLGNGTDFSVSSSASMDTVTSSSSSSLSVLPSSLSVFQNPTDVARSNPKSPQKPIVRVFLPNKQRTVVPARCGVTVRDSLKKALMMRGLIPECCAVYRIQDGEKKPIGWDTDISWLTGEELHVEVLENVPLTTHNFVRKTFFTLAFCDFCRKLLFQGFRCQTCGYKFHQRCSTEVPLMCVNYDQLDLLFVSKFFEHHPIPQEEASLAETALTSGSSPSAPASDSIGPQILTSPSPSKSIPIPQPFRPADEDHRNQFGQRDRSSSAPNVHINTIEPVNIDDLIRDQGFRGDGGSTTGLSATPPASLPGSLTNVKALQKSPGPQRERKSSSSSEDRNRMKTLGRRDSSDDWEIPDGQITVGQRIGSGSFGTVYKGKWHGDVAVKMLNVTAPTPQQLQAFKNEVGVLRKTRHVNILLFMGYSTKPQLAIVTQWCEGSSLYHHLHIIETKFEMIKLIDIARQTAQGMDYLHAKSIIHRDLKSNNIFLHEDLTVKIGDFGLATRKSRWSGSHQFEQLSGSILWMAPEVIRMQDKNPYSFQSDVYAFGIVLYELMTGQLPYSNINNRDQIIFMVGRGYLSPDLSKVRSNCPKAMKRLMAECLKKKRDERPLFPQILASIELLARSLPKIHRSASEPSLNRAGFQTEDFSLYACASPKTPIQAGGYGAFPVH
# RUN_DESCRIPTION: 14C-labeled acetoacetate binding assay
# STUDY_CONDITIONS: increasing concentrations of 14C-labeled acetoacetate
QUANTITY: Kd

1. CC(=O)CC(=O)O [acetoacetate]: ~113 µM

###

# TESTED_ON: BRAF V600D (Homo sapiens, UniProt P15056, V600D)
# RUN_DESCRIPTION: 14C-labeled acetoacetate binding assay
# STUDY_CONDITIONS: increasing concentrations of 14C-labeled acetoacetate
# Description: BRAF wild type and mutant proteins were incubated with increasing concentrations of ^14C-labeled acetoacetate. A series of radiometric metabolite-protein interaction analyses were performed using ^14C labeled acetoacetate incubated with purified BRAF variants in the presence and absence of DHAA.
pKd: −log10 of the molar value.
QUANTITY: pKd

1) CC(=O)CC(=O)O [acetoacetate]: ~4.03
